Measured IC50 of individual entries
subject of test: recombinant human VAP-1 (Homo sapiens, UniProt Q16853)
Construct: purchased R&D systems
Sequence (Q16853 1-763): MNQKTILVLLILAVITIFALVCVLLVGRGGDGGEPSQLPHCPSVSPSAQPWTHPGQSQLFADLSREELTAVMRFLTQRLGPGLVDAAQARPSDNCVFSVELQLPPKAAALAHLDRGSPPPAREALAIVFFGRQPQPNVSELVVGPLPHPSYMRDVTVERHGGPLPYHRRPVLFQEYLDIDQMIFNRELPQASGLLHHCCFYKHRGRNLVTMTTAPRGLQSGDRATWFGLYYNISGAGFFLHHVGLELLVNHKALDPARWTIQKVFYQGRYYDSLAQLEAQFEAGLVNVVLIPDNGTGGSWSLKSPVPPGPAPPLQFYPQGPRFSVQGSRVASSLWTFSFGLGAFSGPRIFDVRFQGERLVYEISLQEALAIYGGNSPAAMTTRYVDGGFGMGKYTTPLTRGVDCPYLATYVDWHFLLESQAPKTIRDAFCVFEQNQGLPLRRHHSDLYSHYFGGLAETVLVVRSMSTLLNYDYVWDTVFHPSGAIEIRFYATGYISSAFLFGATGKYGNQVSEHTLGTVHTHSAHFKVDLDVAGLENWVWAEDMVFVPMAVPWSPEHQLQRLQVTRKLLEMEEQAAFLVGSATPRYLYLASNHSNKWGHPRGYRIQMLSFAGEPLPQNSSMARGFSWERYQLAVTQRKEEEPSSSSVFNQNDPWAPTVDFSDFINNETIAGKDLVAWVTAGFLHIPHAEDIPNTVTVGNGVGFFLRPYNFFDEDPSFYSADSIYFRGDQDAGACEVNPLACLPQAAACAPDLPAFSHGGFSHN
assay: Activity on recombinant human VAP-1, Amplex Red HRP-coupled hydrogen peroxide assay, benzylamine substrate
Format: biochemical
condition info: recombinant human VAP-1, benzylamine substrate; read-out: Inhibitory Activity (IC50, nM) human VAP-1
Structures can show the parent of a compound that is named as a salt.
experimental readout: IC50 (nM)

compound	unit spec	reading
CN1CCOc2cc(-c3cccc(-n4cnn(C/C(=C/F)CN)c4=O)n3)ccc21 [Example 202, hydrochloride]	nM	1
Cc1ccc(-c2ccc3c(c2)OCO3)nc1-n1cnn(C/C(=C/F)CN)c1=O [Example 213, hydrochloride]	nM	29
NC/C(=C\F)Cn1ncn(-c2cccc(-c3ccc(N4CCOCC4)nc3)n2)c1=O	nM	0.53
NC/C(=C\F)Cn1ncn(-c2cnc(-c3ccc(-c4nc[nH]n4)cc3)cn2)c1=O	nM	1.9
NC/C(=C\F)Cn1ncn(-c2cc(/C=C/c3ccccc3)ccn2)c1=O [Example 236, hydrochloride]	nM	0.8
NC/C(=C\F)Cn1ncn(-c2cnc(-c3ccc4cn[nH]c4c3)cn2)c1=O	nM	2.2
NC/C(=C\F)Cn1ncn(-c2ccnc(-c3ccc4c(c3)OCO4)c2)c1=O [Example 209, hydrochloride]	nM	0.63
Cc1cc(-c2cccc(-n3cnn(C/C(=C/F)CN)c3=O)n2)cnc1F [Example 190, hydrochloride]	nM	0.6
Cn1nc(C(F)(F)F)cc1-c1cccc(-n2cnn(C/C(=C/F)CN)c2=O)n1 [Example 192, hydrochloride]	nM	1.4
NC/C(=C\F)Cn1ncn(-c2cccc(C#Cc3ccc4c(c3)NCCO4)n2)c1=O	nM	0.7
NC/C(=C\F)Cn1ncn(-c2cccc(C#Cc3cnc4c(c3)OCC(=O)N4)n2)c1=O	nM	0.2
NC/C(=C\F)Cn1ncn(-c2cc(-c3ccc(N4CCOCC4)nc3)ccn2)c1=O	nM	0.28
NC/C(=C\F)Cn1ncn(-c2cccc(C#Cc3ccc(N4CCOCC4)nc3)n2)c1=O	nM	0.4
NC/C(=C\F)Cn1ncn(-c2cc(-c3ccc(-c4ccon4)cc3)ccn2)c1=O	nM	1
CC(=O)Nc1ccc(-c2cccc(-n3cnn(C/C(=C/F)CN)c3=O)n2)cc1	nM	0.44
Cn1cc(C#Cc2cccc(-n3cnn(C/C(=C/F)CN)c3=O)n2)cn1 [Example 257, hydrochloride]	nM	0.4
